- target_desc: T1, cynomolgus monkey IL-6 (cynomolgus monkey, UniProt P79341 28-212, limits assumed)
- T1 construct: Immobilised on the Biacore chip
- run_description: SPR (Biacore), periplasmic Fab
measurement_type: fold improvement of ka over 28A6 (parental) (fold)

binder: 55A11 (Fab, V domains shown, Periplasmic Fab; Suffix 'd' of the label not explained; also called 55A11d) VH: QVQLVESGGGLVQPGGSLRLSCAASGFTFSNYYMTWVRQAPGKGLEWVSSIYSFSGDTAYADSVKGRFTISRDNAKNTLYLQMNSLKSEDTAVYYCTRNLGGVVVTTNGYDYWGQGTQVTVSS VL: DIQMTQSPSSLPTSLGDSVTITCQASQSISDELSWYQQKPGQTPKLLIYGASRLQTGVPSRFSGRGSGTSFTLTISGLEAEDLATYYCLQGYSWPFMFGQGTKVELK
reported_measurement: 1.13
